Where these numbers come from: PubChem BioAssay AID2060508

# System: 454973-116-R2-J3-PDC spheroids, viability, % test/control
# Test method notes: Anticancer human tumor 454973-116-R2-J3-PDC patient-derived pancreatic carcinoma cell line growth inhibition [GQUAD]
# Measurement parameters: second compound 0.1 µM; first compound 0.00316 µM; stronger effect = lower value; spheroids with HUVEC and MSC
Quick list: viability, T/C per entry.
Numeric answer only, unit % assumed.

Solved cases below.
CC[C@@]1(O)C(=O)OCc2c1cc1n(c2=O)Cc2cc3c(CN(C)C)c(O)ccc3nc2-1 + CN(C)c1ccc(Nc2c3ccc(NC(=O)CCN4CCCC4)cc3nc3cc(NC(=O)CCN4CCCC4)ccc23)cc1 :: 102
Cc1[nH]c2ccccc2c1CCNCc1ccc(/C=C/C(=O)NO)cc1 + CN(C)c1ccc(Nc2c3ccc(NC(=O)CCN4CCCC4)cc3nc3cc(NC(=O)CCN4CCCC4)ccc23)cc1 :: 96.7
Cn1ncnc1[C@H]1c2n[nH]c(=O)c3cc(F)cc(c23)N[C@@H]1c1ccc(F)cc1 + CN(C)c1ccc(Nc2c3ccc(NC(=O)CCN4CCCC4)cc3nc3cc(NC(=O)CCN4CCCC4)ccc23)cc1 :: 94

get_value(item= Cc1[nH]c2ccccc2c1CCNCc1ccc(/C=C/C(=O)NO)cc1 + Cc1[nH]c2ccc(F)cc2c1-c1nc2c3cccnc3c3ncccc3c2[nH]1 , readout=viability, T/C) returns 109

The compound listed as CC[C@@]1(O)C(=O)OCc2c1cc1n(c2=O)Cc2cc3c(CN(C)C)c(O)ccc3nc2-1 + Cc1[nH]c2ccc(F)cc2c1-c1nc2c3cccnc3c3ncccc3c2[nH]1 shows viability, T/C equal to 93.7

###

Measured viability, T/C, listed per entry for reference.
# Tested on: 454973-116-R2-J3-PDC spheroids, viability, % test/control
# Test method notes: Anticancer human tumor 454973-116-R2-J3-PDC cell line growth inhibition [GQUAD];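 further: spheroids exposed to compounds for seven days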;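 on viability, T/C: 100% = DMSO vehicle control viability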
# Measurement parameters: second compound 0.0316 µM; first compound 1 µM; stronger effect = lower value; spheroids with HUVEC and MSC
Record the value in %, omitting the unit from your answer.

The following compounds have reported results that may help.
Cc1cccc(N(C)C(=O)C2C(O)CCN2c2nc(C)cc(C(F)(F)F)c2C#N)c1 (stereo not drawn) + Cc1cnc(CNC(=O)c2c(=O)c3ccc(N4CCCN(C)CC4)nc3n3c2sc2ccccc23)cn1 :: 87.5
CC(C)(O)C1CCC(Nc2ccc3ncc(-c4cccc(C(F)(F)F)c4)n3n2)CC1 (stereo not drawn) + CN(C)c1ccc(Nc2c3ccc(NC(=O)CCN4CCCC4)cc3nc3cc(NC(=O)CCN4CCCC4)ccc23)cc1 :: 77

Turning now to a further record.
viability, T/C reported for this compound CC1COCCN1c1cc(C2(S(C)(=N)=O)CC2)nc(-c2ccnc3[nH]ccc23)n1 (stereo not drawn) + CN(C)c1ccc(Nc2c3ccc(NC(=O)CCN4CCCC4)cc3nc3cc(NC(=O)CCN4CCCC4)ccc23)cc1 : 102

###

# System: 454973-116-R2-J3-PDC spheroids, viability, % test/control
# Test method notes: Anticancer human tumor 454973-116-R2-J3-PDC cell line growth inhibition [GQUAD];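 further: spheroids exposed to compounds for seven days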
# Measurement parameters: curve of first compound; second compound 0.316 µM; spheroids with HUVEC and MSC
Sorting guide: entries reporting IC50 beneath 0.4 µM go in the T pile, the rest go in the F pile.

// known answers, use as guide
O=c1[nH]cc(F)c(=O)[nH]1 + Cc1cnc(CNC(=O)c2c(=O)c3ccc(N4CCCN(C)CC4)nc3n3c2sc2ccccc23)cn1 :: F
O=c1[nH]cc(F)c(=O)[nH]1 + Cc1[nH]c2ccc(F)cc2c1-c1nc2c3cccnc3c3ncccc3c2[nH]1 :: F
CC(C)(O)C1CCC(Nc2ccc3ncc(-c4cccc(C(F)(F)F)c4)n3n2)CC1 (configuration not stated) + Cc1[nH]c2ccc(F)cc2c1-c1nc2c3cccnc3c3ncccc3c2[nH]1 :: F
COc1ccc([C@@H](O)c2cc(-c3ncnc4cc(N5CCOCC5)ccc34)c(F)cc2Cl)nn1 + Cc1cnc(CNC(=O)c2c(=O)c3ccc(N4CCCN(C)CC4)nc3n3c2sc2ccccc23)cn1 :: F
COc1ncnc(C2CC2)c1-c1ncc2cnn(Cc3ccc(-c4nc(C(F)(F)F)cn4C(C)C)cc3)c2n1 + Cc1cnc(CNC(=O)c2c(=O)c3ccc(N4CCCN(C)CC4)nc3n3c2sc2ccccc23)cn1 :: F
O=C(NO)c1cnc(N2CCN(S(=O)(=O)c3ccc4ccccc4c3)CC2)nc1 + Cc1cnc(CNC(=O)c2c(=O)c3ccc(N4CCCN(C)CC4)nc3n3c2sc2ccccc23)cn1 :: T

Please check: IC50 for O=C(NO)c1cnc(N2CCN(S(=O)(=O)c3ccc4ccccc4c3)CC2)nc1 + CN(C)c1ccc(Nc2c3ccc(NC(=O)CCN4CCCC4)cc3nc3cc(NC(=O)CCN4CCCC4)ccc23)cc1 , strictly under 0.4 µM or not? T

I'd appreciate it if you could check whether CC1COCCN1c1cc(C2(S(C)(=N)=O)CC2)nc(-c2ccnc3[nH]ccc23)n1 (configuration not stated) + Cc1[nH]c2ccc(F)cc2c1-c1nc2c3cccnc3c3ncccc3c2[nH]1 has IC50 smaller than 0.4 µM. F

Please determine if CCCS(=O)(=O)Nc1ccc(F)c(C(=O)c2c[nH]c3ncc(-c4ccc(Cl)cc4)cc23)c1F + CN(C)c1ccc(Nc2c3ccc(NC(=O)CCN4CCCC4)cc3nc3cc(NC(=O)CCN4CCCC4)ccc23)cc1 is below 0.4 µM in terms of IC50. F

State whether 0.4 µM exceeds IC50 recorded for COc1ncnc(C2CC2)c1-c1ncc2cnn(Cc3ccc(-c4nc(C(F)(F)F)cn4C(C)C)cc3)c2n1 + Cc1[nH]c2ccc(F)cc2c1-c1nc2c3cccnc3c3ncccc3c2[nH]1 . F

Given COc1ccc([C@@H](O)c2cc(-c3ncnc4cc(N5CCOCC5)ccc34)c(F)cc2Cl)nn1 + CN(C)c1ccc(Nc2c3ccc(NC(=O)CCN4CCCC4)cc3nc3cc(NC(=O)CCN4CCCC4)ccc23)cc1 , is recorded IC50 strictly lower than 0.4 µM? F
